PROTOCOL_TEXT: PSAC antagonists in infected red cells, primary screen, cell-based, P. falciparum Indochina, OD700, 1 h (AID 1154)
CONDITION_INFO: P. falciparum Indochina infected RBC osmotic lysis, higher = more signal, called active from +8 up or from −8 down
OBSERVATION_TYPE: z-score
// keep it numeric: no unit symbol after the value

CCN1C(=O)[C@H]2[C@H]3[C@H](O)[C@H](O)CC(=NNC(=O)OCc4ccccc4)[C@H]3CC[C@H]2C1=O :: 1.26
COC(=O)[C@@H]1CC[C@H](C)[C@@H](c2ccc(Br)cc2)N1C(=O)C(F)(F)F :: 1.08
COc1cccc([C@H]2Oc3ccc(OC)cc3C(=NOCC[C@@H]3C=C[C@H](OC(C)=O)[C@@H](COC(C)=O)O3)[C@@H]2O)c1 :: 1.16

Ask: Hello, please tell me recorded z-score for this one: C[C@H]1CC[C@H]2C(=O)O[C@H](CO)CN2[C@@H]1c1ccc(Br)cc1
Reply: 1.51
